All figures here come from patent US6084130A.

# TARGET OR SYSTEM: D2-DOP-CLONE (Rattus norvegicus, UniProt P61169)
# Construct: expressed in transfected cells; host or cells: CHO-K1
# Sequence (P61169 whole entry): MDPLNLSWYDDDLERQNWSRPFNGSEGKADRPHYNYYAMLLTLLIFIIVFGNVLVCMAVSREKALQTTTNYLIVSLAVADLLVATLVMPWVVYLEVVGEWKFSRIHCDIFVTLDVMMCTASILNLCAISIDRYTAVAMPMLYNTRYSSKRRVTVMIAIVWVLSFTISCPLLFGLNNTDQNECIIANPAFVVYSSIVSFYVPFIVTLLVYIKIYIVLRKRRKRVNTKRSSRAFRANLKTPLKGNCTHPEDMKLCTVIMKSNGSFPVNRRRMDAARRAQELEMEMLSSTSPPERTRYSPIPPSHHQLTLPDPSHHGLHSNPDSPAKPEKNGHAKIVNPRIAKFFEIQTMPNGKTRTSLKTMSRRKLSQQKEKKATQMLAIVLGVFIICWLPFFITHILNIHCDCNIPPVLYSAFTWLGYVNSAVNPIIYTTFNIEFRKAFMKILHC
# PROTOCOL SUMMARY: Competition binding against [3H]-86170, cloned rat D2 receptors expressed in CHO-K1 cells (Table II)
# STUDY CONDITIONS: ligand 86170 (2 nM)
METRIC: Ki (nM)

P. CCCN(CCC)C1CCc2nc(OS(=O)(=O)c3ccc(Cl)cc3)ccc2C1 (centres unmarked)
Q. CCCNC1CCc2nc(OS(=O)(=O)c3ccc(Cl)cc3)ccc2C1 (centres unmarked)
Quick check, higher Ki between P and Q ? Write the label of whichever entry you select.
Q
(Q: 357 nM, P: 184 nM)
